- MEASUREMENT_PROTOCOL: Efflux ratio of apparent permeability across basolateral to apical side over apical to basolateral side in human Caco2 cells at 3 uM incubated for 2 hrs by LC-MS/MS analysis
- Format: ADME, cell-based
- EXPERIMENTAL_SETUP: Caco-2
PARAMETER_MEASURED: efflux ratio at 2 h, 3 µM
Enter the number alone.

Query: Look up efflux ratio at 2 h, 3 µM: Cc1ccc(-c2cc(=O)oc3cc(O[C@H](C)C(=O)N4CC5CCC(C4)N5C)ccc23)c(C)c1
Result: 1.2

====

- Test system: A2780
- MEASUREMENT_PROTOCOL: Antiproliferative activity against human A2780 cells incubated for 168 hrs by SRB method
- Assay type: functional, cell-based
- EXPERIMENTAL_SETUP: A2780, 168 h
PARAMETER_MEASURED: IC50 (µM)
# number only, unit µM dropped from output

- COMPOUND_STRUCTURE_STRING: "Cc1cc(C)c(-c2cc(=O)oc3cc(O[C@H](C)C(=O)N4CC5CCC(C4)N5)ccc23)c(C)c1"
  RECORDED_RESULT: 0.074
- COMPOUND_STRUCTURE_STRING: "CC(=O)N1CCN(C(=O)[C@@H](C)Oc2ccc3c(-c4ccc(F)cc4Cl)cc(=O)oc3c2)CC1"
  RECORDED_RESULT: 0.225
- COMPOUND_STRUCTURE_STRING: "C[C@@H](Oc1ccc2c(-c3ccc(F)cc3Cl)cc(=O)oc2c1)C(=O)N1CCC[C@H]1CO"
  RECORDED_RESULT: 0.432
- COMPOUND_STRUCTURE_STRING: "C[C@@H](Oc1ccc2c(-c3ccc(F)cc3)cc(=O)oc2c1)C(=O)N1CC2CCC(C1)N2"
  RECORDED_RESULT: 0.453
- COMPOUND_STRUCTURE_STRING: "C[C@H](Oc1ccc2c(-c3ccc(F)cc3Cl)cc(=O)oc2c1)C(=O)N1CCC[C@H](C(=O)O)C1"
  RECORDED_RESULT: 0.287

Query: Look up IC50: Cc1cccc(-c2cc(=O)oc3cc(O[C@H](C)C(=O)N4CC5CCC(C4)N5)ccc23)c1
Result: 0.125

Query: Look up IC50: CC(C)(Oc1ccc2c(-c3ccc(F)cc3Cl)cc(=O)oc2c1)C(=O)N1CCC[C@H](C(=O)O)C1
Result: 0.562

Query: Look up IC50: C[C@@H](Oc1ccc2c(-c3ccc(F)cc3Cl)cc(=O)oc2c1)C(=O)NCCCO
Result: 0.178

Query: Look up IC50: C[C@@H](Oc1ccc2c(-c3ccc(F)cc3Cl)cccc2c1)C(=O)N1CCC[C@H](C(=O)O)C1
Result: 0.652

Query: Look up IC50: C[C@@H](Oc1ccc2c(-c3ccc(F)cc3Cl)cc(=O)oc2c1)C(=O)NCCN1CCS(=O)(=O)CC1
Result: 2.52

Query: Look up IC50: C[C@@H](Oc1ccc2c(-c3cccc4ccccc34)cc(=O)oc2c1)C(=O)N1CC2CCC(C1)N2
Result: 0.562

Query: Look up IC50: COCCNC(=O)[C@@H](C)Oc1ccc2c(-c3ccc(F)cc3Cl)cc(=O)oc2c1
Result: 0.152

Query: Look up IC50: C[C@@H](Oc1ccc2c(-c3ccc(F)cc3Cl)cc(=O)oc2c1)C(=O)NCc1ccco1
Result: 0.405

Query: Look up IC50: C[C@@H](CO)NC(=O)[C@@H](C)Oc1ccc2c(-c3ccc(F)cc3Cl)cc(=O)oc2c1
Result: 0.208

Query: Look up IC50: C[C@@H](Oc1ccc2c(-c3ccc(F)cc3Cl)cc(=O)oc2c1)C(=O)N1CCSCC1
Result: 0.302

Query: Look up IC50: C[C@@H](Oc1ccc2c(-c3ccc(F)cc3Cl)cc(=O)oc2c1)C(=O)N1CCNCC1
Result: 0.123

Reference for the values: ChEMBL document CHEMBL5380844
